src = patent EP0339193A1

Target: bombesin receptors (Mus musculus, UniProt P21729)
Construct: has been determined on Swiss 3T3 fibroblasts; endogenous in cells
Sequence (P21729 whole entry): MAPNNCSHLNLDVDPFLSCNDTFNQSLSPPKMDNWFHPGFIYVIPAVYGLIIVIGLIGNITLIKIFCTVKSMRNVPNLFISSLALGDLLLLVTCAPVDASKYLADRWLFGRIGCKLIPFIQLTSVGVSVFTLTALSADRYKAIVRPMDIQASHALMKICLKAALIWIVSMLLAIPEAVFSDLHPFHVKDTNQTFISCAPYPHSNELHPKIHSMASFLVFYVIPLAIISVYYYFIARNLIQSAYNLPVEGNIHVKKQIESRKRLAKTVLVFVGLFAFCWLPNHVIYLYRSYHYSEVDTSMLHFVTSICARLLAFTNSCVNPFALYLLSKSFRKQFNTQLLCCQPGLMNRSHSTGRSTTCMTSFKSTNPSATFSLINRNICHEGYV
Experiment: Binding affinity for the bombesin receptors on Swiss 3T3 fibroblasts
Settings: binding affinity on mouse Swiss 3T3 fibroblasts; read-out: ID₅₀
From the text: The binding affinity of the compounds of the present invention for the bombesin receptors has been determined on Swiss 3T3 fibroblasts (I. Zachary and E. Rozengurt (1985) Proc. Natl. Acad. Sci. USA, 82, 7616-7620) (Table 1).
Square brackets hold non-standard residues; d marks the D form. Peptide text beside a SMILES is read from it. * marks the point of attachment. Boc = CC(C)(C)OC(=O)*; NHPentyl = CCCCCN*
For each of the molecules below, state its log10 IC50.
Please note: log10 values; quantity IC50; unit µM.

Record CSCC[C@H](NC(=O)[C@H](CC(C)C)NC(=O)[C@H](Cc1c[nH]cn1)NC(=O)CNC(=O)[C@@H](NC(=O)[C@H](C)NC(=O)[C@H](Cc1c[nH]c2ccccc12)NC(=O)[C@H](CCC(N)=O)NC(=O)[C@@H](N)CC(N)=O)C(C)C)C(N)=O [BBS(6-14)nonapeptide, reference compound] has bombesin receptors (Mus musculus, UniProt P21729) log10 IC50 equal to -2.03

With bombesin receptors (Mus musculus, UniProt P21729) as the test system, CSCC[C@H](NC(=O)[C@H](CC(C)C)NC(=O)CNC(=O)[C@@H](NC(=O)[C@H](C)NC(=O)[C@H](Cc1c[nH]c2ccccc12)NC(=O)[C@H](CCC(N)=O)NC(=O)[C@@H](NC(=O)OC(C)(C)C)[C@@H](C)O)C(C)C)C(N)=O [XVIII, Boc-Thr-Gln-Trp-Ala-Val-Gly-Leu-Met-NH₂] (Boc-TQWAVGLM-NH2) showed log10 IC50 of 0.00

Entry CC(C)C[C@H](NC(=O)[C@H](Cc1c[nH]cn1)NC(=O)CNC(=O)[C@@H](NC(=O)[C@H](C)NC(=O)[C@H](Cc1c[nH]c2ccccc12)NC(=O)[C@H](CCC(N)=O)NC(=O)[C@@H](NC(=O)OC(C)(C)C)[C@@H](C)O)C(C)C)C(N)=O [XXXIII, Boc-Thr-Gln-Trp-Ala-Val-Gly-His-Leu-NH₂] (Boc-TQWAVGHL-NH2) ; assay system bombesin receptors (Mus musculus, UniProt P21729); log10 IC50 recorded at -0.25

Measured log10 IC50 (bombesin receptors (Mus musculus, UniProt P21729)), entry CSCC[C@H](NC(=O)[C@H](CC(C)C)NC(=O)[C@@H](Cc1ccccc1)NC(=O)CNC(=O)[C@@H](NC(=O)[C@H](C)NC(=O)[C@H](Cc1c[nH]c2ccccc12)NC(=O)[C@H](CCC(N)=O)NC(=O)[C@@H](NC(=O)OC(C)(C)C)[C@@H](C)O)C(C)C)C(N)=O [XVI] (Boc-TQWAVG[dF]LM-NH2) : 1.29

Item: CSCC[C@H](NC(=O)[C@@H](CC(C)C)NC(=O)[C@H](Cc1c[nH]cn1)NC(=O)CNC(=O)[C@@H](NC(=O)[C@H](C)NC(=O)[C@H](Cc1c[nH]c2ccccc12)NC(=O)[C@H](CCC(N)=O)NC(=O)[C@@H](N)[C@@H](C)O)C(C)C)C(N)=O [XXI] | System: bombesin receptors (Mus musculus, UniProt P21729) | log10 IC50: 1.00

Tested on bombesin receptors (Mus musculus, UniProt P21729): CCCCCNC(=O)[C@H](CC(C)C)NC(=O)[C@H](Cc1c[nH]cn1)NC(=O)CNC(=O)[C@@H](NC(=O)[C@H](C)NC(=O)[C@H](Cc1c[nH]c2ccccc12)NC(=O)[C@H](CCC(N)=O)NC(=O)[C@@H](N)[C@@H](C)O)C(C)C [XXVIII] (H-TQWAVGHL-NHPentyl) . Observed log10 IC50: -1.12

Kindly note: bombesin receptors (Mus musculus, UniProt P21729), CSCC[C@H](NC(=O)[C@H](CC(C)C)NC(=O)[C@@H](Cc1ccccc1)NC(=O)CNC(=O)[C@@H](NC(=O)[C@H](C)NC(=O)[C@H](Cc1c[nH]c2ccccc12)NC(=O)[C@H](CCC(N)=O)NC(=O)[C@@H](N)[C@@H](C)O)C(C)C)C(N)=O [XVII] (H-TQWAVG[dF]LM-NH2) , log10 IC50 value reported: 1.51

Record CSCC[C@H](NC(=O)[C@H](CC(C)C)NC(=O)[C@@H](C)NC(=O)CNC(=O)[C@@H](NC(=O)[C@H](C)NC(=O)[C@H](Cc1c[nH]c2ccccc12)NC(=O)[C@H](CCC(N)=O)NC(=O)[C@@H](NC(=O)OC(C)(C)C)[C@@H](C)O)C(C)C)C(N)=O [XXXIV] (Boc-TQWAVG[dA]LM-NH2) / bombesin receptors (Mus musculus, UniProt P21729), log10 IC50 recorded as 1.26

----------
Molecular target: bombesin receptors (Mus musculus)
Construct: has been determined on Swiss 3T3 fibroblasts; endogenous in cells; host or cells: mouse Swiss 3T3 fibroblasts
Test: Binding affinity for the bombesin receptors on Swiss 3T3 fibroblasts
Details: binding affinity on mouse Swiss 3T3 fibroblasts
Numbered stars: 1 amine (or outer) side, 2 acyl side, 3 side chain; on linkers, the order of the positions; unused ones are H or OH. Square brackets hold non-standard residues; d marks the D form. Ends that are not written are not given here. * marks the point of attachment. His(Dnp) = O=C([C@H](Cc1cn(-c2ccc([N+](=O)[O-])cc2[N+](=O)[O-])cn1)N[*:1])[*:2]; Dnp = O=[N+]([O-])c1ccc(*)c([N+](=O)[O-])c1; Boc = CC(C)(C)OC(=O)*
Exercise: state measured ID₅₀ for each of the substances provided.

Quick note, ID₅₀ for Boc-Thr-Gln-Trp-Ala-Val-Gly-His(Dnp)-Leu-NH₂ (Boc-TQWAVG[His(Dnp)]L-NH2; SMILES CC(C)C[C@H](NC(=O)[C@H](Cc1cn(-c2ccc([N+](=O)[O-])cc2[N+](=O)[O-])cn1)NC(=O)CNC(=O)[C@@H](NC(=O)[C@H](C)NC(=O)[C@H](Cc1c[nH]c2ccccc12)NC(=O)[C@H](CCC(N)=O)NC(=O)[C@@H](NC(=O)OC(C)(C)C)[C@@H](C)O)C(C)C)C(N)=O) [XXXII] landed at 770 ± 13 nM

Record H-Thr-Gln-Trp-Ala-Val-Gly-His(Dnp)-leu-Met-NH₂ . HCl (H-TQWAVGH(Dnp); not fully specified (C-terminus); also: HCl salt) [XX] . Reported ID₅₀: 63,000 nM

Quick note, ID₅₀ for H-Thr-Gln-Trp-Ala-Val-Gly-His(Dnp)-Leu-Met-NH₂ . HCl (TQWAVGH; His(Dnp)-Leu-Met-NH2 extension; HCl salt; printed: Thr-Gln-Trp-Ala-Val-Gly-His) [XXII] landed at 5,800 ± 750 nM

----------
Target: bombesin receptors (Mus musculus, UniProt P21729)
Construct: has been determined on Swiss 3T3 fibroblasts; endogenous in cells; host or cells: mouse Swiss 3T3 fibroblasts
Experiment: Binding affinity for the bombesin receptors on Swiss 3T3 fibroblasts
Settings: binding affinity on mouse Swiss 3T3 fibroblasts
Numbered stars: 1 amine (or outer) side, 2 acyl side, 3 side chain; on linkers, the order of the positions; unused ones are H or OH. Square brackets hold non-standard residues; d marks the D form. Ends that are not written are not given here. His(Dnp) = O=C([C@H](Cc1cn(-c2ccc([N+](=O)[O-])cc2[N+](=O)[O-])cn1)N[*:1])[*:2]
value type: ID₅₀ (nM)
// return numeric value only (unit: nM, not printed)

Lab book: ID₅₀ of H-Thr-Gln-Trp-Ala-Val-Gly-His(Dnp)-Leu-NH(CH₂)₄ CH₃.CF₃COOH (H-TQWAVG[His(Dnp)]L-{NH(CH2)4CH3}; also: TFA salt) [XXVII] noted as 335

Recorded result, p-GRP: porcine gastrin releasing peptide (APVSVGGGTVLAKMYPRGNHWAVGHLM; ends and bridges not checked; UniProt P63153 24-50, looked up) [reference compound] , ID₅₀: 17.6

The recorded ID₅₀ for entry Glp-Gln-Arg-Leu-Gly-Asn-Gln-Trp-Ala-Val-Gly-His-Leu-Met-NH₂ [BBS, reference compound] equals 12.6

----------
Biological target: bombesin receptors (Mus musculus, UniProt P21729)
Construct: has been determined on Swiss 3T3 fibroblasts; endogenous in cells; host or cells: mouse Swiss 3T3 fibroblasts
Assay: Binding affinity for the bombesin receptors on Swiss 3T3 fibroblasts
Conditions: binding affinity on mouse Swiss 3T3 fibroblasts; read-out: ID₅₀
pIC50: −log10 of the molar value. Ends that are not written are not given here.
// label = Criterion met if pIC50 is not less than 6, otherwise Criterion not met

// inclusive: pIC50 at least 6? input: RTQWAVGALM-NH2 [XXVI] Criterion met

Determine whether measured pIC50 meets or exceeds 6 for TQWAVGSLM-NH2 [XXIV] Criterion met

Reported pIC50 reaches at least 6 for TQWAVGFLM-NH2 [XXIII] ? Criterion not met

Could you tell me if the measured pIC50 of TQWAVGLM-NH2 [XIX] reaches 6 or more? Criterion not met
